- TEST TARGET: Alpha-1B adrenergic receptor (Homo sapiens)
- Sequence (P35368 whole entry): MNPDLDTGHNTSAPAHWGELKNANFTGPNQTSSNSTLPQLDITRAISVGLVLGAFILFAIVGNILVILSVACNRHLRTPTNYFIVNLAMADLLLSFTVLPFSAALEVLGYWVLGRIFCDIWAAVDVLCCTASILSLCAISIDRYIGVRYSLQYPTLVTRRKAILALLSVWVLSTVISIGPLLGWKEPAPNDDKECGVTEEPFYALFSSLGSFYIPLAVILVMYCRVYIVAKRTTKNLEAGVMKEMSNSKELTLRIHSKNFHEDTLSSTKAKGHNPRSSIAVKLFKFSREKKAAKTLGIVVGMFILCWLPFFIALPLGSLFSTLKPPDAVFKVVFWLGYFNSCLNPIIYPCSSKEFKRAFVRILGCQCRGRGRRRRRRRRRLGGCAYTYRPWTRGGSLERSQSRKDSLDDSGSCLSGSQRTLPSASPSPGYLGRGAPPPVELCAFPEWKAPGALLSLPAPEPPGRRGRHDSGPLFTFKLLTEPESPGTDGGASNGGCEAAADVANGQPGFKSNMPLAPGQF
- TEST METHOD NOTES: Displacement of [3H]prazosin form human recombinant Alpha-1B adrenergic receptor
QUANTITY: pIC50
Give bare numbers, as −log10 of the molar value.

Prompt: Please tell me: pIC50 of CCCN1CCC(COc2nc3scc(C)c3n3cccc23)CC1 , system Alpha-1B adrenergic receptor (Homo sapiens)?
Completion: 6.84

---

Give inhibition for every item shown.
- TEST TARGET: UniProt O70528
- TEST METHOD NOTES: Displacement of [3H]GR-113808 from 5HT4 receptor in guinea pig striatum membrane at 1 uM
- Format: cell membranes

Worked cases, answers included:
[
  {
    "COMPOUND": "c1cc2c(OCCCCN3CCCCC3)nc3ccsc3n2c1",
    "TEST TARGET": "UniProt O70528",
    "RESULT": "100%"
  },
  {
    "COMPOUND": "C=CCN1CCC(COc2nc3scc(C)c3n3cccc23)CC1",
    "TEST TARGET": "UniProt O70528",
    "RESULT": "100%"
  }
]

Your task in this section: give inhibition for each listed record.
1. CCC(C)N1CCC(COc2nc3ccsc3n3cccc23)CC1 (stereo unspecified)
2. CCN1CCC(COc2nc3sccc3n3cccc23)CC1

Completion:
56%
92%

The following compounds each have a reported value; give each one's inhibition.
1. c1cc2c(OC3CN4CCC3CC4)nc3ccsc3n2c1 (stereo unspecified)
2. CN1CCC(COc2nc3ccsc3n3cccc23)CC1
3. CCCCN1CCCC(COc2nc3ccsc3n3cccc23)C1 (stereo unspecified)

Completion:
1. 53%
2. 100%
3. 82%

Provide inhibition for all items below, preserving their order.
1. CCCN1CCCCC1CCOc1nc2ccsc2n2cccc12 (stereo unspecified)
2. CCN1CCC(COc2nc3ccsc3n3cccc23)CC1

Completion:
["72%", "84%"]

Kindly give each listed record's inhibition.
1. C=CCN1CCC(COc2nc3sccc3n3cccc23)CC1
2. c1cc2c(OCC3CCCCN3)nc3ccsc3n2c1 (stereo unspecified)
3. Cc1csc2nc(OCC3CCN(C)CC3)c3cccn3c12
4. c1cc2c(OCCN3CCOCC3)nc3ccsc3n2c1
5. CCCN1CCCC(COc2nc3ccsc3n3cccc23)C1 (stereo unspecified)
6. CC(C)N1CCC(COc2nc3ccsc3n3cccc23)CC1
7. C=CCN1CCC(COc2nc3ccsc3n3cccc23)CC1

Completion:
99%
90%
100%
18%
91%
100%
95%

---

Could you please report measured inhibition for the items listed next?
- TEST TARGET: 5-hydroxytryptamine receptor 4 (Cavia porcellus)
- Sequence (O70528 whole entry): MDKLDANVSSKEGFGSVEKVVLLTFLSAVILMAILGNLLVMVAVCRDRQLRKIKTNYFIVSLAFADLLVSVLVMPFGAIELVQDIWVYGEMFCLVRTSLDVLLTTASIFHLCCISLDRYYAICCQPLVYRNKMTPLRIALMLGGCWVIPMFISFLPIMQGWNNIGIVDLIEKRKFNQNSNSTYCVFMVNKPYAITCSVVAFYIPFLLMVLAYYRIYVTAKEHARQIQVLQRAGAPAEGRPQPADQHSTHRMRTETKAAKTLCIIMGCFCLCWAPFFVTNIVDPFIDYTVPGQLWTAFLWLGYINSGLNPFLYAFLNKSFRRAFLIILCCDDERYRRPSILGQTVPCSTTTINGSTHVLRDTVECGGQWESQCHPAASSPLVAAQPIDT
- TEST METHOD NOTES: Displacement of [3H]GR-113808 from 5HT4 receptor in guinea pig striatum membrane at 10 nM
- Format: cell membranes
Numbers only, in %.

[
  {
    "COMPOUND": "CCCCCN1CCC(COc2nc3sccc3n3cccc23)CC1",
    "RESULT UNITS": "%",
    "READOUT NUMBER": 13
  },
  {
    "COMPOUND": "c1cc2c(OCCCN3CCNCC3)nc3ccsc3n2c1",
    "RESULT UNITS": "%",
    "READOUT NUMBER": 14
  },
  {
    "COMPOUND": "CCCN1CCN(CCOc2nc3ccsc3n3cccc23)CC1",
    "RESULT UNITS": "%",
    "READOUT NUMBER": 0
  },
  {
    "COMPOUND": "c1cc2c(OCC3CCCCN3)nc3ccsc3n2c1 (stereo unspecified)",
    "RESULT UNITS": "%",
    "READOUT NUMBER": 18
  },
  {
    "COMPOUND": "Cc1csc2nc(OCC3CCN(Cc4ccccc4)CC3)c3cccn3c12",
    "RESULT UNITS": "%",
    "READOUT NUMBER": 11
  },
  {
    "COMPOUND": "CC(C)N1CCC(COc2nc3ccsc3n3cccc23)CC1",
    "RESULT UNITS": "%",
    "READOUT NUMBER": 38
  },
  {
    "COMPOUND": "c1cc2c(OCCN3CCNCC3)nc3ccsc3n2c1",
    "RESULT UNITS": "%",
    "READOUT NUMBER": 0
  },
  {
    "COMPOUND": "CN1CCC(COc2nc3ccsc3n3cccc23)CC1",
    "RESULT UNITS": "%",
    "READOUT NUMBER": 0
  }
]

Please give inhibition for each item listed below.
1. CNCCOc1nc2ccsc2n2cccc12
2. CCN1CCC(COc2nc3sccc3n3cccc23)CC1
3. C=CCCN1CCC(COc2nc3ccsc3n3cccc23)CC1
4. CCN1CCC(COc2nc3scc(C)c3n3cccc23)CC1

Completion:
[9, 0, 23, 30]

// each compound listed below needs its inhibition
1. CCN1CCC(COc2nc3ccsc3n3cccc23)CC1
2. CCCCN1CCN(CCOc2nc3ccsc3n3cccc23)CC1

Completion:
1: 42; 2: 12

Items follow; give inhibition for each.
1. c1cc2c(OCCN3CCCC3)nc3ccsc3n2c1
2. c1cc2c(OCCCN3CCCCC3)nc3ccsc3n2c1
3. c1cc2c(OC3CN4CCC3CC4)nc3ccsc3n2c1 (stereo unspecified)
4. CCN(CC)CCCCOc1nc2ccsc2n2cccc12
5. CCC(C)N1CCC(COc2nc3ccsc3n3cccc23)CC1 (stereo unspecified)
6. CCCN1CCC(COc2nc3sccc3n3cccc23)CC1
7. CCCCN1CCC(COc2nc3scc(C)c3n3cccc23)CC1

Completion:
7
30
11
34
2
54
75

---

- TEST TARGET: Alpha-2A adrenergic receptor (Homo sapiens, UniProt P08913)
- Sequence (P08913 whole entry): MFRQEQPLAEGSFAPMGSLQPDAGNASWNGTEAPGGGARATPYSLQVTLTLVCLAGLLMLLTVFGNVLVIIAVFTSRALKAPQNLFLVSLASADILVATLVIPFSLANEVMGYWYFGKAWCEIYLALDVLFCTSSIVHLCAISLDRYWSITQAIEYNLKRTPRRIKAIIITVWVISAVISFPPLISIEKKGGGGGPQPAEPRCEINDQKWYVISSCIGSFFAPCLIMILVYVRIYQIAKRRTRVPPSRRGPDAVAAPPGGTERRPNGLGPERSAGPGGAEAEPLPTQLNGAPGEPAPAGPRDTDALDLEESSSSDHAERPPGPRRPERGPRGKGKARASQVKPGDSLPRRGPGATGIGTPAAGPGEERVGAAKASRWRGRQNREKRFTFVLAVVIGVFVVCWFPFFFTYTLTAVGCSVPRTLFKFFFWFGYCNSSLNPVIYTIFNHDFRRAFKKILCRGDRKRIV
- TEST METHOD NOTES: Displacement of [3H]RX821002 form human recombinant alpha2A adrenergic receptor
QUANTITY: pIC50
One number for each entry, as −log10 of the molar value.

Prompt: Tell me the measured pIC50 of CCCN1CCC(COc2nc3scc(C)c3n3cccc23)CC1 , please.
Completion: 6.05

---

- TEST TARGET: 5-hydroxytryptamine receptor 2A (Homo sapiens, UniProt P28223)
- Sequence (P28223 whole entry): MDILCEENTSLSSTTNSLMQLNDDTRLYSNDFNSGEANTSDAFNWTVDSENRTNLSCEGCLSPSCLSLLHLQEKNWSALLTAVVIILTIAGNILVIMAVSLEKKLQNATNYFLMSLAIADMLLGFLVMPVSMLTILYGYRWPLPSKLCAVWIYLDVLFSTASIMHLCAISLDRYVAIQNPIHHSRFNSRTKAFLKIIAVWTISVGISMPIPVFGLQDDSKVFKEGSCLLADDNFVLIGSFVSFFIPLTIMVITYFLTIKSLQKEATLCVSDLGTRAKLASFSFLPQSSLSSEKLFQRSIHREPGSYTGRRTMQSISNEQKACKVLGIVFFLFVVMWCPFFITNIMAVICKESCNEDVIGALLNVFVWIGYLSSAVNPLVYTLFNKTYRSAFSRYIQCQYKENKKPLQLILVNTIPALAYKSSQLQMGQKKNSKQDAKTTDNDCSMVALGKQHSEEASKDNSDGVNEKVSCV
- TEST METHOD NOTES: Displacement of [3H]ketanserin form human recombinant 5HT2A receptor
QUANTITY: pIC50
Numbers only, as −log10 of the molar value.

[
  {
    "CHEMICAL SMILES": "CCN1CCC(COc2nc3ccsc3n3cccc23)CC1",
    "pIC50": 5.09
  }
]

Proceed to the following item.
Prompt: Please look up its pIC50: CCCCN1CCC(COc2nc3ccsc3n3cccc23)CC1
Completion: 6.78

---

- TEST TARGET: Alpha-2B adrenergic receptor (Homo sapiens, UniProt P18089)
- Sequence (P18089 whole entry): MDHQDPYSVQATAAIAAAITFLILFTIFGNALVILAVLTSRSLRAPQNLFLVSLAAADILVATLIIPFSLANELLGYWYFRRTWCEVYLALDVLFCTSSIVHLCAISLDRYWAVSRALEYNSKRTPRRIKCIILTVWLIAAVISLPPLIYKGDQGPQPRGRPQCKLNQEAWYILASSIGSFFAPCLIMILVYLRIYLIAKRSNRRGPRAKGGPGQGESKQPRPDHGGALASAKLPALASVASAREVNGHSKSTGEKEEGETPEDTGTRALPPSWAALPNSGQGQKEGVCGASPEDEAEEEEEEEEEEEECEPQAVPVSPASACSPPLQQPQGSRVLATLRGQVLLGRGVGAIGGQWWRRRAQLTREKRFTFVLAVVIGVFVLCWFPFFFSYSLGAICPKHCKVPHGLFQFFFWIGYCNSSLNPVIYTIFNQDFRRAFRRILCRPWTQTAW
- TEST METHOD NOTES: Displacement of [3H]RX821002 form human recombinant alpha2B adrenergic receptor
QUANTITY: IC50 (nM)
One number for each entry, in nM.

Prompt: I'd like to know its IC50. The compound in question is CCCN1CCC(COc2nc3scc(C)c3n3cccc23)CC1
Completion: 955

---

- TEST TARGET: UniProtKB O70528
QUANTITY: log10(Ki) (log10 of the value in µM)
Recorded Ki (log10, µM)

Below, 2 compounds whose answers are already recorded.
[
  {
    "COMPOUND": "CCCCN1CCC(COc2nc3scc(C)c3n3cccc23)CC1",
    "log10(Ki)": -2.27
  },
  {
    "COMPOUND": "c1ccc(CN2CCC(COc3nc4ccsc4n4cccc34)CC2)cc1",
    "log10(Ki)": -1.20
  }
]

Give me log10(Ki) for each of these compounds, listed below.
1. CCCN1CCC(COc2nc3ccsc3n3cccc23)CC1
2. C=CCN1CCC(COc2nc3scc(C)c3n3cccc23)CC1

Completion:
1: -1.79; 2: -2.07

Go through the items and report each one's log10(Ki).
1. Cc1csc2nc(OCC3CCN(C(C)C)CC3)c3cccn3c12
2. c1cc2c(OCCC3CCCCN3)nc3ccsc3n2c1 (stereo unspecified)
3. c1cc2c(OCCN3CCCCC3)nc3ccsc3n2c1
4. C=CCN1CCC(COc2nc3sccc3n3cccc23)CC1
5. CCCN1CCC(COc2nc3scc(C)c3n3cccc23)CC1
6. CCCCCN1CCC(COc2nc3sccc3n3cccc23)CC1

Completion:
1. -2.19
2. -0.21
3. -0.38
4. -1.53
5. -2.76
6. -1.31

Prompt: # get_value(readout='log10(Ki)', item= c1cc2c(OCCCN3CCCC3)nc3ccsc3n2c1 )
Completion: -1.13

---

Observed pKi, system 5-hydroxytryptamine receptor 4 (Cavia porcellus, UniProt O70528).
Answers are plain numbers, as −log10 of the molar value.

Please look at the items below and tell me pKi for each one, in order.
1. CCN1CCC(COc2nc3ccsc3n3cccc23)CC1
2. CCN1CCC(COc2nc3scc(C)c3n3cccc23)CC1
3. CCCCCN1CCC(COc2nc3ccsc3n3cccc23)CC1
4. CN1CCC(COc2nc3ccsc3n3cccc23)CC1
5. c1cc2c(OCCCCN3CCCCC3)nc3ccsc3n2c1
6. C=CCCN1CCC(COc2nc3scc(C)c3n3cccc23)CC1

Completion:
1. 7.72
2. 8.02
3. 7.59
4. 7.23
5. 7.24
6. 7.95
